Overview of recorded aptazyme ON/OFF ratio for various variants
B1: Pistol ribozyme (parent)
chain: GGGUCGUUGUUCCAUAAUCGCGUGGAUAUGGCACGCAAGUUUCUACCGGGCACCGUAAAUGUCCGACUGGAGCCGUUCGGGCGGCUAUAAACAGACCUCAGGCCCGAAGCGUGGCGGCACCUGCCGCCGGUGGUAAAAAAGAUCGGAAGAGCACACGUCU

# Variants of: B1
# assay-text: aptazyme ON/OFF ratio, guanine; higher = stronger switching; co-transcriptional cleavage with and without guanine
Quick one: just the number, no unit, thanks!

The following variants have reported results that may help.
[
  {
    "mutant-designation": "U7C U11A C12G C13G",
    "aptazyme ON/OFF ratio": 1.16
  },
  {
    "mutant-designation": "U7C U8C G9A U11C C12U C13A",
    "aptazyme ON/OFF ratio": 1.19
  },
  {
    "mutant-designation": "U7G U8C G9C U10G U11C C12A",
    "aptazyme ON/OFF ratio": 1.36
  },
  {
    "mutant-designation": "U7G U8C G9U U10G U11C",
    "aptazyme ON/OFF ratio": 1.15
  }
]

stdin: Please list aptazyme ON/OFF ratio recorded for the variant U8C G9U C12G
stdout: 1.42

stdin: Please list aptazyme ON/OFF ratio recorded for the variant G9C U10A U11C C12U C13U
stdout: 1.29

stdin: Please list aptazyme ON/OFF ratio recorded for the variant U8C G9U U10A U11A C12U C13U
stdout: 1.5

stdin: Please list aptazyme ON/OFF ratio recorded for the variant C12U
stdout: 1.91

stdin: Please list aptazyme ON/OFF ratio recorded for the variant U7G G9C U10G U11A C13U
stdout: 1.24

stdin: Please list aptazyme ON/OFF ratio recorded for the variant U7C U10A U11C C13U
stdout: 1.01

stdin: Please list aptazyme ON/OFF ratio recorded for the variant U7G U8C G9U U10C C12G C13A
stdout: 1.31
